System: 616215-338-R-J1-PDC tumor spheroids, viability
method: Anticancer human tumor 616215-338-R-J1-PDC patient-derived colon adenocarcinoma cell line growth inhibition [GQUAD]
test conditions: second compound 0.1 µM; first compound 10 µM; stronger effect = lower value; spheroids with HUVEC and MSC
Recorded viability, T/C values for a group of compounds are listed next.
quantity name: viability, T/C (%)

- C=CC(=O)N1CCN(c2nc(=O)n(-c3c(C)ccnc3C(C)C)c3nc(-c4c(O)cccc4F)c(F)cc23)C(C)C1 (stereo unspecified) + CN(C)c1ccc(Nc2c3ccc(NC(=O)CCN4CCCC4)cc3nc3cc(NC(=O)CCN4CCCC4)ccc23)cc1: 64.8
- O=C(c1cc(Cc2n[nH]c(=O)c3ccccc23)ccc1F)N1CCN(C(=O)C2CC2)CC1 + Cc1[nH]c2ccc(F)cc2c1-c1nc2c3cccnc3c3ncccc3c2[nH]1: 72.3
- COc1cc(C2c3cc4c(cc3C(OC3OC5COC(C)OC5C(O)C3O)C3COC(=O)C23)OCO4)cc(OC)c1O (stereo unspecified) + CN(C)c1ccc(Nc2c3ccc(NC(=O)CCN4CCCC4)cc3nc3cc(NC(=O)CCN4CCCC4)ccc23)cc1: 18.7
- COc1ccc([C@@H](O)c2cc(-c3ncnc4cc(N5CCOCC5)ccc34)c(F)cc2Cl)nn1 + CN(C)c1ccc(Nc2c3ccc(NC(=O)CCN4CCCC4)cc3nc3cc(NC(=O)CCN4CCCC4)ccc23)cc1: 55.6
- O=C(NO)c1cnc(N2CCN(S(=O)(=O)c3ccc4ccccc4c3)CC2)nc1 + CN(C)c1ccc(Nc2c3ccc(NC(=O)CCN4CCCC4)cc3nc3cc(NC(=O)CCN4CCCC4)ccc23)cc1: 0.07
- CC(C)n1c(=O)n(C)c2cnc3cc(F)c(-c4ccc(OCCCN5CCCCC5)nc4)cc3c21 + CN(C)c1ccc(Nc2c3ccc(NC(=O)CCN4CCCC4)cc3nc3cc(NC(=O)CCN4CCCC4)ccc23)cc1: 81.1
- C#Cc1c(F)ccc2cc(O)cc(-c3ncc4c(N5CC6CCC(C5)N6)nc(OCC56CCCN5CC(F)C6)nc4c3F)c12 (stereo unspecified) + Cc1cnc(CNC(=O)c2c(=O)c3ccc(N4CCCN(C)CC4)nc3n3c2sc2ccccc23)cn1: 22.1
- CC1COCCN1c1cc(-c2ccnn2C)c2ccnc(-c3ccn[nH]3)c2n1 (stereo unspecified) + Cc1[nH]c2ccc(F)cc2c1-c1nc2c3cccnc3c3ncccc3c2[nH]1: 19.9
- O=C(NO)c1cnc(N2CCN(S(=O)(=O)c3ccc4ccccc4c3)CC2)nc1 + Cc1[nH]c2ccc(F)cc2c1-c1nc2c3cccnc3c3ncccc3c2[nH]1: 0.07
- CC1COCCN1c1cc(C2(S(C)(=N)=O)CC2)nc(-c2ccnc3[nH]ccc23)n1 (stereo unspecified) + Cc1cnc(CNC(=O)c2c(=O)c3ccc(N4CCCN(C)CC4)nc3n3c2sc2ccccc23)cn1: 32.6
- C#Cc1c(F)ccc2cc(O)cc(-c3ncc4c(N5CC6CCC(C5)N6)nc(OCC56CCCN5CC(F)C6)nc4c3F)c12 (stereo unspecified) + Cc1[nH]c2ccc(F)cc2c1-c1nc2c3cccnc3c3ncccc3c2[nH]1: 78.4

----------
System: 616215-338-R-J1-PDC tumor spheroids, viability
method: Anticancer human tumor 616215-338-R-J1-PDC cell line growth inhibition [GQUAD];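 note: spheroids exposed to agents for 7 days before readout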;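 for viability, T/C: percent viability relative to DMSO vehicle control wells taken as 100%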
test conditions: second compound 1 µM; first compound 3.16 µM; stronger effect = lower value; spheroids with HUVEC and MSC
Recorded viability, T/C values for a group of molecules are listed next.
quantity name: viability, T/C (%)

* CC(C)n1c(=O)n(C)c2cnc3cc(F)c(-c4ccc(OCCCN5CCCCC5)nc4)cc3c21 + CN(C)c1ccc(Nc2c3ccc(NC(=O)CCN4CCCC4)cc3nc3cc(NC(=O)CCN4CCCC4)ccc23)cc1 | 111
* CC(C)(O)C1CCC(Nc2ccc3ncc(-c4cccc(C(F)(F)F)c4)n3n2)CC1 (stereo not given) + Cc1cnc(CNC(=O)c2c(=O)c3ccc(N4CCCN(C)CC4)nc3n3c2sc2ccccc23)cn1 | 0.05
* COc1cc(C2c3cc4c(cc3C(OC3OC5COC(C)OC5C(O)C3O)C3COC(=O)C23)OCO4)cc(OC)c1O (stereo not given) + CN(C)c1ccc(Nc2c3ccc(NC(=O)CCN4CCCC4)cc3nc3cc(NC(=O)CCN4CCCC4)ccc23)cc1 | 34.3
* CC1COCCN1c1cc(C2(S(C)(=N)=O)CC2)nc(-c2ccnc3[nH]ccc23)n1 (stereo not given) + Cc1cnc(CNC(=O)c2c(=O)c3ccc(N4CCCN(C)CC4)nc3n3c2sc2ccccc23)cn1 | 27.7
* COc1cccc2c1C(=O)c1c(O)c3c(c(O)c1C2=O)CC(O)(C(=O)CO)CC3OC1CC(N)C(O)C(C)O1 (stereo not given) + Cc1cnc(CNC(=O)c2c(=O)c3ccc(N4CCCN(C)CC4)nc3n3c2sc2ccccc23)cn1 | 12.6

----------
System: 616215-338-R-J1-PDC tumor spheroids, viability
method: Anticancer human tumor 616215-338-R-J1-PDC cell line growth inhibition [GQUAD];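 note: spheroids exposed to agents for 7 days before readout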
test conditions: curve of first compound; second compound 0.316 µM; spheroids with HUVEC and MSC
# strict inequality: IC50 < 0.6 µM yields y, everything else yields n

* O=C(NO)c1cnc(N2CCN(S(=O)(=O)c3ccc4ccccc4c3)CC2)nc1 + Cc1cnc(CNC(=O)c2c(=O)c3ccc(N4CCCN(C)CC4)nc3n3c2sc2ccccc23)cn1 | y
* O=C(c1cc(Cc2n[nH]c(=O)c3ccccc23)ccc1F)N1CCN(C(=O)C2CC2)CC1 + Cc1[nH]c2ccc(F)cc2c1-c1nc2c3cccnc3c3ncccc3c2[nH]1 | n
* Cc1cccc(N(C)C(=O)C2C(O)CCN2c2nc(C)cc(C(F)(F)F)c2C#N)c1 (stereo unspecified) + CN(C)c1ccc(Nc2c3ccc(NC(=O)CCN4CCCC4)cc3nc3cc(NC(=O)CCN4CCCC4)ccc23)cc1 | n
* COc1ccc([C@@H](O)c2cc(-c3ncnc4cc(N5CCOCC5)ccc34)c(F)cc2Cl)nn1 + Cc1[nH]c2ccc(F)cc2c1-c1nc2c3cccnc3c3ncccc3c2[nH]1 | n
* C=CCn1c(=O)c2cnc(Nc3ccc(N4CCN(C)CC4)cc3)nc2n1-c1cccc(C(C)(C)O)n1 + CN(C)c1ccc(Nc2c3ccc(NC(=O)CCN4CCCC4)cc3nc3cc(NC(=O)CCN4CCCC4)ccc23)cc1 | y
* CC1COCCN1c1cc(C2(S(C)(=N)=O)CC2)nc(-c2ccnc3[nH]ccc23)n1 (stereo unspecified) + CN(C)c1ccc(Nc2c3ccc(NC(=O)CCN4CCCC4)cc3nc3cc(NC(=O)CCN4CCCC4)ccc23)cc1 | n
* CC1COCCN1c1cc(C2(S(C)(=N)=O)CC2)nc(-c2ccnc3[nH]ccc23)n1 (stereo unspecified) + Cc1[nH]c2ccc(F)cc2c1-c1nc2c3cccnc3c3ncccc3c2[nH]1 | n
* COc1ncnc(C2CC2)c1-c1ncc2cnn(Cc3ccc(-c4nc(C(F)(F)F)cn4C(C)C)cc3)c2n1 + CN(C)c1ccc(Nc2c3ccc(NC(=O)CCN4CCCC4)cc3nc3cc(NC(=O)CCN4CCCC4)ccc23)cc1 | n
* CC1COCCN1c1cc(C2(O)CC3CCC(C2)O3)c2cnn(-c3ccn[nH]3)c2n1 (stereo unspecified) + CN(C)c1ccc(Nc2c3ccc(NC(=O)CCN4CCCC4)cc3nc3cc(NC(=O)CCN4CCCC4)ccc23)cc1 | y
* COc1cccc2c1C(=O)c1c(O)c3c(c(O)c1C2=O)CC(O)(C(=O)CO)CC3OC1CC(N)C(O)C(C)O1 (stereo unspecified) + Cc1cnc(CNC(=O)c2c(=O)c3ccc(N4CCCN(C)CC4)nc3n3c2sc2ccccc23)cn1 | y
* COc1cc(C2c3cc4c(cc3C(OC3OC5COC(C)OC5C(O)C3O)C3COC(=O)C23)OCO4)cc(OC)c1O (stereo unspecified) + Cc1cnc(CNC(=O)c2c(=O)c3ccc(N4CCCN(C)CC4)nc3n3c2sc2ccccc23)cn1 | y
* COc1cc(C2c3cc4c(cc3C(OC3OC5COC(C)OC5C(O)C3O)C3COC(=O)C23)OCO4)cc(OC)c1O (stereo unspecified) + Cc1[nH]c2ccc(F)cc2c1-c1nc2c3cccnc3c3ncccc3c2[nH]1 | n
* Cc1[nH]c2ccccc2c1CCNCc1ccc(/C=C/C(=O)NO)cc1 + Cc1cnc(CNC(=O)c2c(=O)c3ccc(N4CCCN(C)CC4)nc3n3c2sc2ccccc23)cn1 | y
* Nc1ccn(C2OC(CO)C(O)C2(F)F)c(=O)n1 (stereo unspecified) + CN(C)c1ccc(Nc2c3ccc(NC(=O)CCN4CCCC4)cc3nc3cc(NC(=O)CCN4CCCC4)ccc23)cc1 | y
* COc1cccc2c1C(=O)c1c(O)c3c(c(O)c1C2=O)CC(O)(C(=O)CO)CC3OC1CC(N)C(O)C(C)O1 (stereo unspecified) + CN(C)c1ccc(Nc2c3ccc(NC(=O)CCN4CCCC4)cc3nc3cc(NC(=O)CCN4CCCC4)ccc23)cc1 | y
* CC1COCCN1c1cc(C2(S(C)(=N)=O)CC2)nc(-c2ccnc3[nH]ccc23)n1 (stereo unspecified) + Cc1cnc(CNC(=O)c2c(=O)c3ccc(N4CCCN(C)CC4)nc3n3c2sc2ccccc23)cn1 | y
* O=C(NO)c1cnc(N2CCN(S(=O)(=O)c3ccc4ccccc4c3)CC2)nc1 + Cc1[nH]c2ccc(F)cc2c1-c1nc2c3cccnc3c3ncccc3c2[nH]1 | y
* CC1COCCN1c1cc(-c2ccnn2C)c2ccnc(-c3ccn[nH]3)c2n1 (stereo unspecified) + Cc1cnc(CNC(=O)c2c(=O)c3ccc(N4CCCN(C)CC4)nc3n3c2sc2ccccc23)cn1 | y
* COc1ncnc(C2CC2)c1-c1ncc2cnn(Cc3ccc(-c4nc(C(F)(F)F)cn4C(C)C)cc3)c2n1 + Cc1cnc(CNC(=O)c2c(=O)c3ccc(N4CCCN(C)CC4)nc3n3c2sc2ccccc23)cn1 | y
* CC(C)n1c(=O)n(C)c2cnc3cc(F)c(-c4ccc(OCCCN5CCCCC5)nc4)cc3c21 + Cc1[nH]c2ccc(F)cc2c1-c1nc2c3cccnc3c3ncccc3c2[nH]1 | n
